Assay: Canine pharmacokinetics of enteric coated formulations at 0.15 mg/kg (T1) and 0.75 mg/kg (T5)
Assay type: in vivo
Conditions: dog, blood, po, 0.75 mg/kg, dogs, oral enteric coated formulation, T5 0.75 mg/kg, Median
Reported Endpoint: AUC(0-inf) (µg·h/mL)
Answers are plain numbers, in µg·h/mL.

[Q] Need AUC(0-inf), item CO[C@H]1C[C@@H]2CC[C@@H](C)[C@@](O)(O2)C(=O)C(=O)N2CCCC[C@H]2C(=O)O[C@H]([C@H](C)C[C@@H]2CC[C@@H](O)[C@H](OC)C2)CC(=O)[C@H](C)/C=C(\C)[C@@H](O)[C@@H](OC)C(=O)[C@H](C)C[C@H](C)/C=C/C=C/C=C/1C [rapamycin]
[A] 0.0984

###

Assay: Canine pharmacokinetics of enteric coated formulations at 0.15 mg/kg (T1) and 0.75 mg/kg (T5)
Assay type: in vivo
Conditions: dog, blood, po, 0.15 mg/kg, dogs, oral enteric coated formulation, T1 0.15 mg/kg, Arith. Mean
Reported Endpoint: AUC(0-t) (ng·h/mL)
Numbers only, in ng·h/mL.

[Q] For the compound CO[C@H]1C[C@@H]2CC[C@@H](C)[C@@](O)(O2)C(=O)C(=O)N2CCCC[C@H]2C(=O)O[C@H]([C@H](C)C[C@@H]2CC[C@@H](O)[C@H](OC)C2)CC(=O)[C@H](C)/C=C(\C)[C@@H](O)[C@@H](OC)C(=O)[C@H](C)C[C@H](C)/C=C/C=C/C=C/1C , what AUC(0-t) is on record?
[A] 40.8

###

Test: Feline repeat dose toxicokinetic study of oral enteric-coated formulations
Assay type: in vivo
Settings: whole blood, 0.45 mg/kg, cats, oral enteric-coated formulation, 0.45 mg/kg, Day 0, whole blood, Mean
Reported Endpoint: Cmax (ng/mL)
One number for each entry, in ng/mL.

[Q] Item under review: CO[C@H]1C[C@@H]2CC[C@@H](C)[C@@](O)(O2)C(=O)C(=O)N2CCCC[C@H]2C(=O)O[C@H]([C@H](C)C[C@@H]2CC[C@@H](O)[C@H](OC)C2)CC(=O)[C@H](C)/C=C(\C)[C@@H](O)[C@@H](OC)C(=O)[C@H](C)C[C@H](C)/C=C/C=C/C=C/1C [rapamycin] . Reported Cmax?
[A] 4.4

###

Assay: Canine pharmacokinetics of enteric coated formulations at 0.15 mg/kg (T1) and 0.75 mg/kg (T5)
Format: in vivo
Conditions: dog, blood, po, 0.15 mg/kg, dogs, oral enteric coated formulation, T1 0.15 mg/kg, Arith. Mean
Reported Endpoint: AUC(0-inf) (ng·h/mL)
Numbers only, in ng·h/mL.

[Q] Report AUC(0-inf) for CO[C@H]1C[C@@H]2CC[C@@H](C)[C@@](O)(O2)C(=O)C(=O)N2CCCC[C@H]2C(=O)O[C@H]([C@H](C)C[C@@H]2CC[C@@H](O)[C@H](OC)C2)CC(=O)[C@H](C)/C=C(\C)[C@@H](O)[C@@H](OC)C(=O)[C@H](C)C[C@H](C)/C=C/C=C/C=C/1C please.
[A] 42.7

###

Assay: Canine pharmacokinetics of enteric coated formulations at 0.15 mg/kg (T1) and 0.75 mg/kg (T5)
Format: in vivo
Details: dog, blood, po, 0.75 mg/kg, dogs, oral enteric coated formulation, T5 0.75 mg/kg, Median
Reported Endpoint: Cmax (ng/mL)
One number for each entry, in ng/mL.

[Q] I have this compound here, CO[C@H]1C[C@@H]2CC[C@@H](C)[C@@](O)(O2)C(=O)C(=O)N2CCCC[C@H]2C(=O)O[C@H]([C@H](C)C[C@@H]2CC[C@@H](O)[C@H](OC)C2)CC(=O)[C@H](C)/C=C(\C)[C@@H](O)[C@@H](OC)C(=O)[C@H](C)C[C@H](C)/C=C/C=C/C=C/1C [rapamycin] , and I need its recorded Cmax.
[A] 3.14

###

Test: Canine pharmacokinetics of enteric coated formulations at 0.15 mg/kg (T1) and 0.75 mg/kg (T5)
Type: in vivo
Settings: dog, blood, po, 0.15 mg/kg, dogs, oral enteric coated formulation, T1 0.15 mg/kg, Median
Reported Endpoint: Cmax (ng/mL)
Numbers only, in ng/mL.

[Q] # input compound: CO[C@H]1C[C@@H]2CC[C@@H](C)[C@@](O)(O2)C(=O)C(=O)N2CCCC[C@H]2C(=O)O[C@H]([C@H](C)C[C@@H]2CC[C@@H](O)[C@H](OC)C2)CC(=O)[C@H](C)/C=C(\C)[C@@H](O)[C@@H](OC)C(=O)[C@H](C)C[C@H](C)/C=C/C=C/C=C/1C ; wanted: its Cmax
[A] 2.17

###

Assay: Feline repeat dose toxicokinetic study of oral enteric-coated formulations
Assay type: in vivo
Conditions: whole blood, 0.15 mg/kg, cats, oral enteric-coated formulation, 0.15 mg/kg three times a week, Day 26, whole blood, Mean
Reported Endpoint: Cmax (ng/mL)
Numbers only, in ng/mL.

[Q] Please give the measured Cmax for this compound: CO[C@H]1C[C@@H]2CC[C@@H](C)[C@@](O)(O2)C(=O)C(=O)N2CCCC[C@H]2C(=O)O[C@H]([C@H](C)C[C@@H]2CC[C@@H](O)[C@H](OC)C2)CC(=O)[C@H](C)/C=C(\C)[C@@H](O)[C@@H](OC)C(=O)[C@H](C)C[C@H](C)/C=C/C=C/C=C/1C [rapamycin]
[A] 2.26

###

Experiment: Canine pharmacokinetics of enteric coated formulations at 0.15 mg/kg (T1) and 0.75 mg/kg (T5)
Format: in vivo
Details: dog, blood, po, 0.75 mg/kg, dogs, oral enteric coated formulation, T5 0.75 mg/kg, Median
Reported Endpoint: AUC(0-t) (ng·h/mL)
Answers are plain numbers, in ng·h/mL.

[Q] # input molecule: CO[C@H]1C[C@@H]2CC[C@@H](C)[C@@](O)(O2)C(=O)C(=O)N2CCCC[C@H]2C(=O)O[C@H]([C@H](C)C[C@@H]2CC[C@@H](O)[C@H](OC)C2)CC(=O)[C@H](C)/C=C(\C)[C@@H](O)[C@@H](OC)C(=O)[C@H](C)C[C@H](C)/C=C/C=C/C=C/1C ; wanted: its AUC(0-t)
[A] 96.9

###

Experiment: Feline repeat dose toxicokinetic study of oral enteric-coated formulations
Format: in vivo
Settings: whole blood, 0.15 mg/kg, cats, oral enteric-coated formulation, 0.15 mg/kg, Day 0, whole blood, Mean
Reported Endpoint: Tmax

[Q] May I ask what Tmax has been recorded for CO[C@H]1C[C@@H]2CC[C@@H](C)[C@@](O)(O2)C(=O)C(=O)N2CCCC[C@H]2C(=O)O[C@H]([C@H](C)C[C@@H]2CC[C@@H](O)[C@H](OC)C2)CC(=O)[C@H](C)/C=C(\C)[C@@H](O)[C@@H](OC)C(=O)[C@H](C)C[C@H](C)/C=C/C=C/C=C/1C [rapamycin] ?
[A] 4 h

###

Assay: Feline repeat dose toxicokinetic study of oral enteric-coated formulations
Assay type: in vivo
Conditions: whole blood, 0.75 mg/kg, cats, oral enteric-coated formulation, 0.75 mg/kg three times a week, Day 26, whole blood, Mean
Reported Endpoint: Cmax (ng/mL)
Answers are plain numbers, in ng/mL.

[Q] Endpoint output: Cmax of CO[C@H]1C[C@@H]2CC[C@@H](C)[C@@](O)(O2)C(=O)C(=O)N2CCCC[C@H]2C(=O)O[C@H]([C@H](C)C[C@@H]2CC[C@@H](O)[C@H](OC)C2)CC(=O)[C@H](C)/C=C(\C)[C@@H](O)[C@@H](OC)C(=O)[C@H](C)C[C@H](C)/C=C/C=C/C=C/1C [rapamycin] . Value?
[A] 8.07

###

Test: Feline repeat dose toxicokinetic study of oral enteric-coated formulations
Format: in vivo
Conditions: whole blood, 0.45 mg/kg, cats, oral enteric-coated formulation, 0.45 mg/kg three times a week, Day 26, whole blood, Mean
Reported Endpoint: Tmax (h)
One number for each entry, in h.

[Q] Query (compound): CO[C@H]1C[C@@H]2CC[C@@H](C)[C@@](O)(O2)C(=O)C(=O)N2CCCC[C@H]2C(=O)O[C@H]([C@H](C)C[C@@H]2CC[C@@H](O)[C@H](OC)C2)CC(=O)[C@H](C)/C=C(\C)[C@@H](O)[C@@H](OC)C(=O)[C@H](C)C[C@H](C)/C=C/C=C/C=C/1C ; field requested: Tmax
[A] 2

###

Assay: Feline repeat dose toxicokinetic study of oral enteric-coated formulations
Assay type: in vivo
Settings: whole blood, 0.45 mg/kg, cats, oral enteric-coated formulation, 0.45 mg/kg three times a week, Day 26, whole blood, Mean
Reported Endpoint: Cmax (ng/mL)
One number for each entry, in ng/mL.

[Q] Value lookup for Cmax; key = CO[C@H]1C[C@@H]2CC[C@@H](C)[C@@](O)(O2)C(=O)C(=O)N2CCCC[C@H]2C(=O)O[C@H]([C@H](C)C[C@@H]2CC[C@@H](O)[C@H](OC)C2)CC(=O)[C@H](C)/C=C(\C)[C@@H](O)[C@@H](OC)C(=O)[C@H](C)C[C@H](C)/C=C/C=C/C=C/1C [rapamycin]
[A] 6.98
